Test system: DNA
Assay: Binding parameters of the complexes between 6-alkylangelicins and DNA (in the dark)
Conditions: according to Mc Ghee and Von Hippel
Mark True only when -n (number of nucleotides occluded by one bound molecule) stays strictly below 20. Values equal to the cut-off are False.

Please determine if Cc1cc2c(o1)c(C)c(C)c1ccc(=O)oc12 [6,5,5'-trimethylangelicin] is below 20 in terms of -n (number of nucleotides occluded by one bound molecule).
True

Is -n (number of nucleotides occluded by one bound molecule) strictly under 20 for the entry Cc1cc(=O)oc2c1cc(C)c1occ(C)c12 [6,4,4'-trimethylangelicin] ?
True

Consider Cc1cc2ccc(=O)oc2c2c(C)coc12 [6,4'-dimethylangelicin] . Does its -n (number of nucleotides occluded by one bound molecule) lie strictly below 20?
True

Hello, is -n (number of nucleotides occluded by one bound molecule) of the following molecule strictly smaller than 20? Cc1cc2c(o1)c(C)cc1ccc(=O)oc12 [6,5'-dimethylangelicin]
True

Check if -n (number of nucleotides occluded by one bound molecule) falls below 20 for Cc1cc2ccc(=O)oc2c2ccoc12 [6-methylangelicin] .
False

Find out if reported -n (number of nucleotides occluded by one bound molecule) for O=c1ccc2ccc3occc3c2o1 [angelicin] is less than 20
True

A record lists Cc1cc(=O)oc2c1cc(C)c1occc12 [6,4-dimethylangelicin] . Is its -n (number of nucleotides occluded by one bound molecule) below 20?
True

A record lists Cc1cc2c(o1)c(C)cc1c(C)cc(=O)oc12 [6,4,5'-trimethylangelicin] . Is its -n (number of nucleotides occluded by one bound molecule) below 20?
False

---

Answer each item with its documented rate constant of photoreaction with DNA.
System: DNA
Assay: Rate constant of photoreaction with DNA
Type: biochemical
Details: irradiation
I'd appreciate it if you wrote the number followed by its unit.

// rate constant of photoreaction with DNA value for `Cc1cc2ccc(=O)oc2c2c(C)coc12` : 9.90 min^-1 × 10^2

Please fill in: rate constant of photoreaction with DNA reported for `Cc1cc2c(o1)c(C)cc1c(C)cc(=O)oc12` = 7.02 min^-1 × 10^2

// rate constant of photoreaction with DNA lookup, compound = `Cc1cc2c(o1)c(C)cc1ccc(=O)oc12` , result: 3.00 min^-1 × 10^2

// rate constant of photoreaction with DNA lookup, compound = `O=c1ccc2ccc3occc3c2o1` , result: 1.10 min^-1 × 10^2

rate constant of photoreaction with DNA in this record for `Cc1cc2c(o1)c(C)c(C)c1ccc(=O)oc12` : 2.30 min^-1 × 10^2

Consider `Cc1cc(=O)oc2c1cc(C)c1occ(C)c12` . Its measured rate constant of photoreaction with DNA is 13.30 min^-1 × 10^2

# rate constant of photoreaction with DNA of `Cc1cc2ccc(=O)oc2c2ccoc12` = 3.60 min^-1 × 10^2

get_value(item= `Cc1cc(=O)oc2c1cc(C)c1occc12` , readout=rate constant of photoreaction with DNA) returns 5.23 min^-1 × 10^2

---

Test system: DNA
Experiment: Binding parameters of the complexes between 6-alkylangelicins and DNA (in the dark)
Conditions: according to Mc Ghee and Von Hippel
Value type: l/-n (frequency of binding sites, ligands bound per nucleotide)

// sample `Cc1cc2c(o1)c(C)cc1c(C)cc(=O)oc12` , its l/-n (frequency of binding sites, ligands bound per nucleotide) was 0.045 ± 0.002

# l/-n (frequency of binding sites, ligands bound per nucleotide) of `Cc1cc2ccc(=O)oc2c2c(C)coc12` = 0.061 ± 0.003

Lab note: `Cc1cc2ccc(=O)oc2c2ccoc12` gave l/-n (frequency of binding sites, ligands bound per nucleotide) of 0.048 ± 0.002

# l/-n (frequency of binding sites, ligands bound per nucleotide) (molecule: `Cc1cc2c(o1)c(C)cc1ccc(=O)oc12` ) is 0.078 ± 0.004

The measured l/-n (frequency of binding sites, ligands bound per nucleotide) associated with `Cc1cc2c(o1)c(C)c(C)c1ccc(=O)oc12` reads 0.070 ± 0.0035

Lab note: `Cc1cc(=O)oc2c1cc(C)c1occc12` gave l/-n (frequency of binding sites, ligands bound per nucleotide) of 0.063 ± 0.003

Measured l/-n (frequency of binding sites, ligands bound per nucleotide) of `Cc1cc(=O)oc2c1cc(C)c1occ(C)c12` : 0.091 ± 0.0045

Input `O=c1ccc2ccc3occc3c2o1` . Output l/-n (frequency of binding sites, ligands bound per nucleotide): 0.063 ± 0.003

meta.source: patent US5179217A
